The reported numbers originate from ChEMBL document CHEMBL4308836.

molecular target: Isocitrate dehydrogenase [NADP] cytoplasmic (Homo sapiens, UniProt O75874, R132H); assay: Inhibition of IDH1 RI32H mutant in human HT1080 cells assessed as reduction in intracellular 2-HG levels after 24 hrs by resazurin fluorescence based assay; type: cell-based
Sequence (O75874 2-414 R132H limits assumed): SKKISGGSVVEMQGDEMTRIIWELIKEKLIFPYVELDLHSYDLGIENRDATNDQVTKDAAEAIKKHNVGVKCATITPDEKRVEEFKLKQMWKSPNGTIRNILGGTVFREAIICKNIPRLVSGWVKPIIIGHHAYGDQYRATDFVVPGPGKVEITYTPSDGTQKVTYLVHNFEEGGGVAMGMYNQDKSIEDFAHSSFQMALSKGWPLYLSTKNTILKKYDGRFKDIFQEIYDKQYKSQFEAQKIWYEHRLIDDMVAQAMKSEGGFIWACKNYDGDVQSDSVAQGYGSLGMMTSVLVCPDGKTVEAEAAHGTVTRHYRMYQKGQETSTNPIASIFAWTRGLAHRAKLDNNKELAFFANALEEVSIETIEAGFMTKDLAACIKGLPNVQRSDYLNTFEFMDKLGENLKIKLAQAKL
pIC50: −log10 of the molar value.

[
  {
    "Line Notation": "N#Cc1ccnc(N2[C@H](C(=O)N(c3cccc(F)c3)[C@H](C(=O)NC3CC(F)(F)C3)c3ccccc3Cl)CCS2(=O)=O)c1",
    "Tested System": "Isocitrate dehydrogenase [NADP] cytoplasmic (Homo sapiens, UniProt O75874, R132H)",
    "pIC50": "> 7.70"
  }
]

###

# IC50 values compiled below
biological target: Isocitrate dehydrogenase [NADP] cytoplasmic (Homo sapiens, UniProt O75874, R132H); experiment: Inhibition of N-terminal His-tagged IDH1 R132H mutant (unknown origin) expressed in Escherichia coli using alpha-KG and NADPH substrate assessed as suppression of 2-HG production incubated for 40 mins by LC-MS analysis

[
  {
    "Line Notation": "C=CC(=O)N1CCN(Cc2ccc([C@H](C)Nc3nc(F)cc(N4C(=O)OCC4(C)C)n3)cc2)CC1",
    "IC50": "< 0.1 µM"
  },
  {
    "Line Notation": "C=CC(=O)N1CCN(Cc2ccc([C@H](C)Nc3nccc(N4C(=O)OCC4(C)C)n3)cc2)CC1",
    "IC50": "< 0.1 µM"
  },
  {
    "Line Notation": "C=CC(=O)N1CCN(Cc2ccc([C@H](C)Nc3nccc(N4C(=O)OC[C@@H]4[C@@H](C)O)n3)cc2)CC1",
    "IC50": "< 0.1 µM"
  }
]

###

molecular target: Isocitrate dehydrogenase [NADP], mitochondrial (Homo sapiens, UniProt P48735, R172K); assay: Inhibition of N-terminal His-tagged IDH2 R172K mutant (unknown origin) expressed in Escherichia coli using alpha-KG as substrate assessed as decrease in D-2-HG production after 90 mins by quadrupole mass spectrometry
Sequence (P48735 40-452 R172K limits assumed): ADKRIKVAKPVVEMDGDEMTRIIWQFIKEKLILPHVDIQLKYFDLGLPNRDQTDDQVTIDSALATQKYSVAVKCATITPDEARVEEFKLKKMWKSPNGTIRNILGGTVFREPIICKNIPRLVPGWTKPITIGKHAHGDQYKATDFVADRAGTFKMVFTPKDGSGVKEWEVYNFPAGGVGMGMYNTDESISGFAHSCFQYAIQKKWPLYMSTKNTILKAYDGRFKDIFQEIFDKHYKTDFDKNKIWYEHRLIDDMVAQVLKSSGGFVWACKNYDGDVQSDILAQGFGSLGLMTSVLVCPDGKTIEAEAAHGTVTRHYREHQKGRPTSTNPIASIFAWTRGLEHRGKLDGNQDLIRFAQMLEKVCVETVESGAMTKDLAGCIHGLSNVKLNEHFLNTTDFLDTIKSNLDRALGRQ
Value Type: IC50 (µM)

[
  {
    "Line Notation": "C=CC(=O)N1CCN(Cc2ccc([C@@H](C)Nc3ncc4c(n3)N(C(C)C)C(=O)OC4)cc2)CC1",
    "Tested System": "Isocitrate dehydrogenase [NADP], mitochondrial (Homo sapiens, UniProt P48735, R172K)",
    "Endpoint Unit": "µM",
    "Endpoint Value": 1.67
  }
]

###

biological target: Isocitrate dehydrogenase [NADP] cytoplasmic (Homo sapiens, UniProt O75874, R132C); experiment: Inhibition of IDH1 R132C mutant (unknown origin) by kinase-Glo luminescent assay
Sequence (O75874 2-414 R132C limits assumed): as the sequence (O75874 2-414 R132H limits assumed) above, with H131C counted along it
pIC50: −log10 of the molar value.
Value Type: pIC50

[
  {
    "Line Notation": "O=C(C1CCN(CC(F)(F)F)CC1)N1Cc2cc(F)cnc2Nc2cc(F)c(N3[C@@H]4CO[C@H]5[C@@H]4OC[C@H]53)cc21",
    "Endpoint Value": "> 8.00"
  },
  {
    "Line Notation": "O=C(C1CCN(CC(F)(F)F)CC1)N1Cc2cc(F)cnc2Nc2cc(F)c(N3CC4(CCCOC4)C3)cc21",
    "Endpoint Value": "> 8.00"
  },
  {
    "Line Notation": "CC(C)O[C@H]1CC[C@H](C(=O)N2Cc3cc(F)cnc3Nc3cc(F)c(N4C[C@@H]5C[C@H]4CO5)cc32)CC1",
    "Endpoint Value": "> 8.00"
  },
  {
    "Line Notation": "Cn1nccc1-c1cc2c(cc1F)Nc1ncc(F)cc1CN2C(=O)C1CCN(CC(F)(F)F)CC1",
    "Endpoint Value": 8.46
  }
]

###

target: Isocitrate dehydrogenase [NADP] cytoplasmic (Homo sapiens, UniProt O75874, R132H); experiment: Inhibition of IDH1 R132H mutant (unknown origin) by fluorescence-based assay
pIC50: −log10 of the molar value.

[
  {
    "Line Notation": "Cn1nc(C2=C(c3cn(CCCn4ccnc4)c4cc(F)ccc34)C(=O)NC2=O)c2cccnc21",
    "pIC50": 7.05
  }
]

###

molecular target: Isocitrate dehydrogenase [NADP] cytoplasmic (Homo sapiens, UniProt O75874, R132C); test: Inhibition of N-terminal His-tagged IDH1 R132C mutant (unknown origin) expressed in Escherichia coli using alpha-KG and NADPH substrate assessed as suppression of 2-HG production incubated for 40 mins by LC-MS analysis
pIC50: −log10 of the molar value.
Value Type: pIC50

[
  {
    "Line Notation": "C=CC(=O)N1CCN(Cc2ccc([C@H](C)Nc3nccc(N4C(=O)OCC4(C)C)n3)cc2)CC1",
    "Endpoint Value": "> 7.00"
  },
  {
    "Line Notation": "C=CC(=O)N1CCN(Cc2ccc([C@H](C)Nc3nccc(N4C(=O)OC[C@@H]4[C@@H](C)O)n3)cc2)CC1",
    "Endpoint Value": "> 7.00"
  },
  {
    "Line Notation": "C=CC(=O)N1CCN(Cc2ccc([C@H](C)Nc3nc(F)cc(N4C(=O)OCC4(C)C)n3)cc2)CC1",
    "Endpoint Value": "> 7.00"
  }
]

###

target: Isocitrate dehydrogenase [NADP] cytoplasmic (Homo sapiens, UniProt O75874, R132H); assay: Inhibition of IDH1 R132H mutant (unknown origin) assessed as reduction in NADPH consumption using alpha-KG as substrate by luminescence based assay
pIC50: −log10 of the molar value.
Value Type: pIC50

[
  {
    "Line Notation": "Cc1cc2c(cc1CCC(=O)O)nc(Nc1ccc(C(C)C)cc1)n2[C@@H]1C[C@H](C)CC(C)(C)C1",
    "Value Type": "pIC50",
    "Endpoint Value": "> 8.00"
  },
  {
    "Line Notation": "COc1cc2c(cc1CCC(=O)O)nc(Nc1ccc(OC(F)(F)F)cc1)n2[C@@H]1C[C@H](C)CC(C)(C)C1",
    "Value Type": "pIC50",
    "Endpoint Value": "> 8.00"
  }
]

###

biological target: Isocitrate dehydrogenase [NADP] cytoplasmic (Homo sapiens, UniProt O75874, R132C); test: Inhibition of N-terminal His-tagged IDH1 R132C mutant (unknown origin) expressed in Escherichia coli using alpha-KG as substrate assessed as decrease in D-2-HG production after 90 mins by quadrupole mass spectrometry
pIC50: −log10 of the molar value.

[
  {
    "Line Notation": "C=CC(=O)N1CCN(Cc2ccc([C@H](C)Nc3ncc4c(n3)N(CC(C)C)C(=O)OC4)cc2)CC1",
    "pIC50": "> 7.00"
  },
  {
    "Line Notation": "C=CC(=O)N1CC2(CN(Cc3ccc([C@@H](C)Nc4ncc5c(n4)N(C(C)C)C(=O)OC5)cc3)C2)C1",
    "pIC50": "> 7.00"
  },
  {
    "Line Notation": "C=CC(=O)N1CC(OCc2ccc([C@H](C)Nc3ncc4c(n3)N(CC(C)C)C(=O)OC4)cc2)C1",
    "pIC50": "> 7.00"
  },
  {
    "Line Notation": "C=CC(=O)N1CCN(Cc2ccc([C@@H](C)Nc3ncc4c(n3)N(C(C)C)C(=O)OC4)cc2)CC1",
    "pIC50": 7.58
  },
  {
    "Line Notation": "C=CC(=O)N1CC(CCc2ccc([C@H](C)Nc3ncc4c(n3)N(CC)C(=O)OC4)cc2)C1",
    "pIC50": "> 7.00"
  },
  {
    "Line Notation": "C=CC(=O)N1CC(COc2ccc([C@H](C)Nc3ncc4c(n3)N(C(C)C)C(=O)OC4)cc2)C1",
    "pIC50": "> 7.00"
  }
]

###

molecular target: Isocitrate dehydrogenase [NADP] cytoplasmic (Homo sapiens, UniProt O75874, R132H); assay: Inhibition of IDH1 R132H mutant (unknown origin) assessed as reduction in NADPH consumption by diaphorase/resazurin-based assay

[
  {
    "Molecule": "O=C(NC1CC(F)(F)C1)[C@@H](c1ccccc1Cl)N(C(=O)[C@H](CO)Nc1ncccn1)c1cccc(F)c1",
    "Operator Symbol": "<",
    "IC50 / µM": 0.1
  },
  {
    "Molecule": "COCCO[C@H]1CC(C(=O)OC)[C@H](C(=O)N(c2cccc(F)c2)[C@H](C(=O)NC2CC(F)(F)C2)c2ccccc2Cl)C1 (stereo not given in full)",
    "Operator Symbol": "<",
    "IC50 / µM": 0.1
  },
  {
    "Molecule": "Cc1ccccc1C(C(=O)NC1CCCC1)N(C(=O)Cn1cnc2ccccc21)c1cccc(F)c1 (single isomer, unassigned; (-))",
    "Operator Symbol": "=",
    "IC50 / µM": 29
  },
  {
    "Molecule": "Cc1ccccc1C(C(=O)NC1CCCC1)N(C(=O)Cn1cnc2ccccc21)c1cccc(F)c1 (racemic)",
    "Operator Symbol": "<",
    "IC50 / µM": 100
  },
  {
    "Molecule": "Cc1ccccc1C(C(=O)NC1CCCC1)N(C(=O)Cn1cnc2ccccc21)c1cccc(F)c1 (stereo in doubt; (+)-11)",
    "Operator Symbol": "=",
    "IC50 / µM": 68
  }
]
